Data provenance: patent US20260151494A1

MEASURED ON: T1, apical domain of human CD71 (human, UniProt P02786 189-383, limits assumed)
T1 construct: domain: apical domain; Screen 4 panned on human apical domains, the ELISA text says only 'apical domain'
ASSAY OVERVIEW: primary ELISA; note: test concentration or dose not given here

BINDER	MEASUREMENT UNIT	RLU
CD71-binding FN3 domain of SEQ ID NO: 544 (designed binder) MLPAPKNLVVSRVTEDSARLSWTAPDAAFDSFFIGYLEPQPPGEAIALLVPGSERSYDLTGLKPGTEYNVTIQGVKGGFPSHPLSASFTT	RLU	4.07e+06
CD71-binding FN3 domain of SEQ ID NO: 478 (designed binder) MLPAPKNLVVSRVTEDSARLSWTAPDAAFDSFFIGYLEPQPPGEAIHLYVPGSERSYDLTGLKPGTEYNVTIQGVKGGFPSVPLIAKFTT	RLU	5.9e+06
